TESTED_ON: CYP2D6 (Homo sapiens, UniProt P10635)
Sequence (P10635 whole entry): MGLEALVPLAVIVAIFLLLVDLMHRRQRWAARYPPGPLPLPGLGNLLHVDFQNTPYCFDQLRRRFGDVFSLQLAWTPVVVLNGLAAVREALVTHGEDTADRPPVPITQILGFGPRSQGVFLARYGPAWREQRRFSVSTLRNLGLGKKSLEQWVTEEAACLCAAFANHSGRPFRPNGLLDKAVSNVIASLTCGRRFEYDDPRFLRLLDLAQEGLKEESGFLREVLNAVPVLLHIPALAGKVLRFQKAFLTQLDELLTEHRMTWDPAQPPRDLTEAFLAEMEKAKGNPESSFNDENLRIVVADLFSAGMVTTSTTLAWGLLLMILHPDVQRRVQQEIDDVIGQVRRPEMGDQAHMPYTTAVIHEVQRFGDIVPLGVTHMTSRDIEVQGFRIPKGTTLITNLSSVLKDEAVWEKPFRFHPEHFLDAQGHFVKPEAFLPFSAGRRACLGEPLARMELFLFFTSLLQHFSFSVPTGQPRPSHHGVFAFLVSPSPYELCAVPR
PROCEDURE_DETAILS: Luminescent CYP2D6 P450-Glo assay
EXPERIMENTAL_PARAMETERS: human
pIC50: −log10 of the molar value.
OBSERVABLE: pIC50

- COMPOUND: "CC1CCCN(CCCCCCOc2ccc(C(=O)c3ccccc3)cc2)C1.O=C(O)C(=O)O (stereo not shown) [Ligand 6]"
  REPORTED_VALUE: 6.17

----------
# key: entry, value: Ki
TESTED_ON: human histamine H3R (Homo sapiens, UniProt Q9Y5N1)
Construct: expressed in transfected cells
Sequence (Q9Y5N1 whole entry): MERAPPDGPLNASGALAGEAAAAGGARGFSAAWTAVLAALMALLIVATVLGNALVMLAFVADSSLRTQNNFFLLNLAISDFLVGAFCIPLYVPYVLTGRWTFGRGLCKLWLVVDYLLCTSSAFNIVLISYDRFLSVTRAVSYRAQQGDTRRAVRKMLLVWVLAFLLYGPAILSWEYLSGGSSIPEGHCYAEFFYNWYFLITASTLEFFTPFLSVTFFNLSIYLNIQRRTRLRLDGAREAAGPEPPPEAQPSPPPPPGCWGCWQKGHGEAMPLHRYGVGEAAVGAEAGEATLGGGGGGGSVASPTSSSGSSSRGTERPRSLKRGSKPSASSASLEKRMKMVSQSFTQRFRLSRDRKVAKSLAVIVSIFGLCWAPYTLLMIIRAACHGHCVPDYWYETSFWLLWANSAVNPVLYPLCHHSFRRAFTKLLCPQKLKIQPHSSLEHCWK
PROCEDURE_DETAILS: [3H]Nα-methylhistamine radioligand displacement assay, HEK-293 cell membranes
Assay type: binding
OBSERVABLE: Ki

- COMPOUND: "O=C(O)C(=O)O.O=C(c1ccccc1)c1ccc(OCCCCCN2CCCCC2)cc1 [Ligand 14]"
  REPORTED_VALUE: "36.2 nM"
- COMPOUND: "O=C(O)C(=O)O.O=C(c1ccccc1)c1ccc(OCCCCCN2CCCCCC2)cc1 [Ligand 16]"
  REPORTED_VALUE: "38.5 nM"
- COMPOUND: "O=C(O)C(=O)O.O=C(c1ccccc1)c1ccc(OCCCCCCN2CCCCC2)cc1 [Ligand 5]"
  REPORTED_VALUE: "41.1 nM"
- COMPOUND: "CC1CCCN(CCCCCCOc2cccc(C(=O)c3ccccc3)c2)C1.O=C(O)C(=O)O (stereo not shown) [Ligand 9]"
  REPORTED_VALUE: "110 nM"

----------
TESTED_ON: human histamine H3R (Homo sapiens, UniProt Q9Y5N1)
Construct: expressed in transfected cells
PROCEDURE_DETAILS: [3H]Nα-methylhistamine radioligand displacement assay, HEK-293 cell membranes
Format: binding

- COMPOUND: "O=C(O)C(=O)O.O=C(c1ccccc1)c1cccc(OCCCCCCN2CCCCCC2)c1 [Ligand 10]"
  SCALE_UNIT: "nM"
  Ki: 69.5
- COMPOUND: "CC1CCCN(CCCCCOc2ccc(C(=O)c3ccccc3)cc2)C1.O=C(O)C(=O)O (centres unmarked) [Ligand 15]"
  SCALE_UNIT: "nM"
  Ki: 40.2
- COMPOUND: "O=C(O)C(=O)O.O=C(c1ccccc1)c1ccc(OCCCCCCN2CCCCCC2)cc1 [Ligand 7]"
  SCALE_UNIT: "nM"
  Ki: 40.5
- COMPOUND: "O=C(O)C(=O)O.O=C(c1ccccc1)c1cccc(OCCCCCCN2CCCCC2)c1 [Ligand 8]"
  SCALE_UNIT: "nM"
  Ki: 76.1
- COMPOUND: "CC1CCCN(CCCCCCOc2ccc(C(=O)c3ccccc3)cc2)C1.O=C(O)C(=O)O (centres unmarked) [Ligand 6]"
  SCALE_UNIT: "nM"
  Ki: 52.8

----------
Endpoint: Ki. System: human H1 receptor (Homo sapiens, UniProt P35367). Items follow.
Sequence (P35367 whole entry): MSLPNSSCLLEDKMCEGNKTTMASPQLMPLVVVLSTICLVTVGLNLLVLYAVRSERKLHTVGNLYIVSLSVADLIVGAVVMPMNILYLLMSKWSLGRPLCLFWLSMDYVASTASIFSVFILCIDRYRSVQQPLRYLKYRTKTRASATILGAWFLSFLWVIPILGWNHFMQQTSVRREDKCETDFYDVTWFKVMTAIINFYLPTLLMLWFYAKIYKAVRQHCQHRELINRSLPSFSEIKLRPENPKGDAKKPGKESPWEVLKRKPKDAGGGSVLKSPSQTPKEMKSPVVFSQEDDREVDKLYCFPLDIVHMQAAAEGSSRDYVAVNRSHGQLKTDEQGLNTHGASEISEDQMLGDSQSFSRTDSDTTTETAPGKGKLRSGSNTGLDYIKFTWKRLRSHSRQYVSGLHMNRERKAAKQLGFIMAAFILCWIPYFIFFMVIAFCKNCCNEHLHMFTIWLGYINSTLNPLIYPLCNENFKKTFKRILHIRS
OBSERVABLE: Ki

- MOLECULE: "CC1CCCN(CCCCCCOc2ccc(C(=O)c3ccccc3)cc2)C1.O=C(O)C(=O)O (stereo not drawn)"
  TESTED_ON: "human H1 receptor (Homo sapiens, UniProt P35367)"
  REPORTED_VALUE: "915 to 1340 nM"
- MOLECULE: "CC1CCCN(CCCCCCOc2cccc(C(=O)c3ccccc3)c2)C1.O=C(O)C(=O)O (stereo not drawn)"
  TESTED_ON: "human H1 receptor (Homo sapiens, UniProt P35367)"
  REPORTED_VALUE: "915 to 1340 nM"
- MOLECULE: "CC1CCCN(CCCCCOc2ccc(C(=O)c3ccccc3)cc2)C1.O=C(O)C(=O)O (stereo not drawn)"
  TESTED_ON: "human H1 receptor (Homo sapiens, UniProt P35367)"
  REPORTED_VALUE: "915 to 1340 nM"
